System: Pseudomonas aeruginosa ATCC 15422
experimental-protocol: ≥ marks a high value that may be exact or a test limit, other limits are often not marked, values filed in µg/mL are converted to µM
quantity-kind: MIC (µM)
Please give a number only; it is taken to be in µM.

The following molecules have reported results that may help.
{"smiles-text": "CC[C@H](C)[C@H](N)C(=O)N[C@@H](CC(N)=O)C(=O)N[C@@H](Cc1c[nH]c2ccccc12)C(=O)N[C@@H](CCCCN)C(=O)N[C@@H](CCCCN)C(=O)N[C@H](C(=O)N[C@@H](CCCCN)C(=O)N[C@@H](CCCCN)C(=O)N[C@@H](CCCCN)C(=O)N[C@H](C(=O)N[C@@H](CCCCN)C(=O)NCC(=O)N[C@@H](CCSC)C(=O)N[C@@H](CC(C)C)C(N)=O)C(C)C)[C@@H](C)CC", "measured-target": "Pseudomonas aeruginosa ATCC 15422", "MIC [µM]": 9.33}
{"smiles-text": "CC[C@H](C)[C@H](N)C(=O)N[C@@H](CC(N)=O)C(=O)N[C@@H](Cc1c[nH]c2ccccc12)C(=O)N[C@@H](CCCCN)C(=O)N[C@@H](CCCCN)C(=O)N[C@@H](CCSC)C(=O)N[C@@H](C)C(=O)N[C@@H](C)C(=O)N[C@H](C(=O)N[C@@H](C)C(=O)N[C@@H](CC(C)C)C(=O)N[C@@H](CCCCN)C(=O)N[C@@H](CCSC)C(=O)N[C@H](C(N)=O)[C@@H](C)CC)[C@@H](C)O", "measured-target": "Pseudomonas aeruginosa ATCC 15422", "MIC [µM]": 9.64}

Read the next record carefully.
Exercise: Given the molecule `CC[C@H](C)[C@H](N)C(=O)N[C@@H](CC(N)=O)C(=O)N[C@@H](Cc1c[nH]c2ccccc12)C(=O)N[C@@H](CC(C)C)C(=O)N[C@@H](CCCCN)C(=O)N[C@H](C(=O)N[C@@H](C)C(=O)N[C@@H](C)C(=O)N[C@@H](C)C(=O)N[C@H](C(=O)N[C@@H](C)C(=O)NCC(=O)N[C@@H](CCSC)C(=O)N[C@@H](CC(C)C)C(N)=O)C(C)C)[C@@H](C)CC` , write its reported MIC.
Key: 21.1

----------
// MIC collected for Bacillus subtilis 168

The following compounds have reported results that may help.
{"smiles-text": "CC(C)C[C@H](NC(=O)[C@@H](NC(=O)[C@H](CCCCN)NC(=O)[C@H](CCCCN)NC(=O)[C@H](CC(C)C)NC(=O)[C@H](CC(C)C)NC(=O)[C@H](CCCCN)NC(=O)[C@H](CC(C)C)NC(=O)[C@H](C)NC(=O)[C@H](CCCCN)NC(=O)CNC(=O)[C@H](Cc1ccccc1)NC(=O)CN)C(C)C)C(N)=O", "measured-target": "Bacillus subtilis 168", "MIC": "1.8 µM"}
{"smiles-text": "CSCC[C@H](NC(=O)[C@H](Cc1cnc[nH]1)NC(=O)[C@H](C)NC(=O)[C@H](CCSC)NC(=O)[C@@H](NC(=O)[C@H](CCCCN)NC(=O)[C@@H]1CCCN1)C(C)C)C(=O)N[C@@H](CCCCN)C(N)=O", "measured-target": "Bacillus subtilis 168", "MIC": "≥ 100 µM"}

Read the next record carefully.
Exercise: Given the compound `CC[C@H](C)[C@H](NC(=O)[C@H](CCCCN)NC(=O)CNC(=O)[C@H](CC(C)C)NC(=O)[C@@H](NC(=O)[C@H](CCCCN)NC(=O)[C@H](CCCCN)NC(=O)[C@H](Cc1c[nH]c2ccccc12)NC(=O)[C@H](CC(N)=O)NC(=O)[C@@H](N)C(C)C)C(C)C)C(=O)N[C@H](C(=O)N[C@@H](CCCCN)C(=O)N[C@H](C(=O)N[C@@H](C)C(=O)N[C@@H](CCCCN)C(N)=O)C(C)C)[C@@H](C)CC` , write its reported MIC.
Key: 0.8 µM

----------
System: Pseudomonas aeruginosa ATCC 27853
experimental-protocol: ≥ marks a high value that may be exact or a test limit, other limits are often not marked, values filed in µg/mL are converted to µM
So basically, if MIC comes in under 7 µM it's MET, and if it's 7 µM or more it's NOT MET.

Exercise: Regarding CC(C)C[C@H](NC(=O)[C@H](C)NC(=O)[C@H](CC(C)C)NC(=O)[C@@H](NC(=O)[C@H](C)NC(=O)[C@H](CCCCN)NC(=O)[C@H](CC(C)C)NC(=O)[C@H](CC(C)C)NC(=O)[C@@H](NC(=O)[C@H](Cc1cnc[nH]1)NC(=O)[C@@H](NC(=O)[C@H](CCCCN)NC(=O)[C@H](CO)NC(=O)[C@H](CC(C)C)NC(=O)[C@@H](NC(=O)[C@@H](N)CCCCN)C(C)C)C(C)C)[C@@H](C)O)C(C)C)C(N)=O [KVLSKVHTLLKAVLAL] , kindly confirm whether its MIC is beneath 7 µM.
Key: MET

Exercise: Regarding NC(=O)[C@H](Cc1c[nH]c2ccccc12)NC(=O)[C@H](CCCN=C(N)N)NC(=O)[C@H](CCCN=C(N)N)NC(=O)[C@H](Cc1c[nH]c2ccccc12)NC(=O)[C@H](Cc1c[nH]c2ccccc12)NC(=O)[C@H](Cc1c[nH]c2ccccc12)NC(=O)[C@H](CCCN=C(N)N)NC(=O)[C@H](CCCN=C(N)N)NC(=O)[C@@H](N)Cc1c[nH]c2ccccc12 [WRRWWWRRW] , kindly confirm whether its MIC is beneath 7 µM.
Key: MET

Exercise: Regarding CC[C@H](C)[C@H](NC(=O)[C@@H](NC(=O)[C@H](CO)NC(=O)CN)C(C)C)C(=O)N[C@@H](CCCN=C(N)N)C(=O)N[C@@H](C)C(=O)N[C@@H](CC(C)C)C(=O)N[C@@H](CCSC)C(=O)N[C@@H](CCCN=C(N)N)C(=O)N[C@@H](CCSC)C(=O)N[C@@H](Cc1ccccc1)C(=O)N[C@@H](C)C(=O)N[C@@H](CCCN=C(N)N)C(=O)N[C@@H](CC(C)C)C(=O)N[C@H](C(=O)NCC(=O)O)C(C)C [GSVIRALMRMFARLVG] , kindly confirm whether its MIC is beneath 7 µM.
Key: MET

Exercise: Regarding CSCC[C@H](NC(=O)[C@@H](N)[C@@H](C)O)C(=O)N[C@@H](CO)C(=O)N[C@@H](CC(C)C)C(=O)N[C@@H](CCCN=C(N)N)C(=O)N[C@@H](Cc1ccccc1)C(=O)N[C@@H](Cc1c[nH]c2ccccc12)C(=O)N[C@@H](CCCN=C(N)N)C(=O)N[C@@H](Cc1c[nH]c2ccccc12)C(=O)N[C@@H](CCCCN)C(=O)N[C@H](C(=O)N[C@@H](CCCN=C(N)N)C(=O)O)C(C)C [TMSLRFWRWKVR] , kindly confirm whether its MIC is beneath 7 µM.
Key: NOT MET

----------
Tested on: Pseudomonas aeruginosa ATCC 27853
experimental-protocol: ≥ marks a high value that may be exact or a test limit, other limits are often not marked, values filed in µg/mL are converted to µM
quantity-kind: MIC

The following molecules have reported results that may help.
{"molecule": "CC[C@H](C)[C@H](N)C(=O)N[C@@H](CC(C)C)C(=O)N[C@@H](CO)C(=O)N[C@@H](CC(C)C)C(=O)N[C@@H](CCCN=C(N)N)C(=O)N[C@@H](Cc1c[nH]c2ccccc12)C(=O)N[C@@H](Cc1c[nH]c2ccccc12)C(=O)N[C@@H](CCCN=C(N)N)C(=O)N[C@@H](CCCCN)C(=O)N[C@@H](Cc1c[nH]c2ccccc12)C(=O)N[C@@H](Cc1c[nH]c2ccccc12)C(=O)N[C@@H](CCCCN)C(=O)N[C@@H](CCCCN)C(=O)O [ILSLRWWRKWWKK]", "measured-target": "Pseudomonas aeruginosa ATCC 27853", "MIC": "32 µM"}
{"molecule": "CC[C@H](C)[C@H](NC(=O)[C@H](C)NC(=O)[C@H](CCCCN)NC(=O)[C@H](CC(C)C)NC(=O)[C@@H](N)CC(N)=O)C(=O)N[C@@H](C)C(=O)N[C@@H](C)C(=O)N[C@@H](CC(C)C)C(=O)N[C@@H](C)C(=O)N[C@@H](CCCCN)C(=O)N[C@@H](CCCCN)C(=O)N[C@@H](CC(C)C)C(=O)N[C@@H](CC(C)C)C(=O)O [NLKAIAALAKKLL]", "measured-target": "Pseudomonas aeruginosa ATCC 27853", "MIC": "29.3 µM"}
{"molecule": "CC[C@H](C)[C@H](NC(=O)CN)C(=O)N[C@@H](CCSC)C(=O)N[C@@H](CO)C(=O)N[C@@H](CO)C(=O)N[C@@H](CC(C)C)C(=O)N[C@@H](CCSC)C(=O)N[C@@H](CCCCN)C(=O)N[C@@H](CCCCN)C(=O)N[C@@H](CC(C)C)C(=O)N[C@@H](CCCCN)C(=O)N[C@@H](CCCCN)C(=O)N[C@H](C(=O)N[C@H](C(=O)N[C@@H](C)C(=O)N[C@@H](CCCCN)C(N)=O)[C@@H](C)CC)[C@@H](C)CC [GIMSSLMKKLKKIIAK]", "measured-target": "Pseudomonas aeruginosa ATCC 27853", "MIC": "5 µM"}
{"molecule": "C[C@H](NC(=O)[C@H](C)NC(=O)[C@H](C)NC(=O)[C@H](Cc1ccccc1)NC(=O)[C@H](C)NC(=O)[C@H](CCCCN)NC(=O)[C@@H](N)CCCCN)C(=O)N[C@@H](C)C(=O)N[C@@H](C)C(=O)N[C@@H](Cc1ccccc1)C(=O)N[C@@H](C)C(=O)N[C@@H](C)C(=O)N[C@@H](Cc1c[nH]c2ccccc12)C(=O)N[C@@H](C)C(=O)N[C@@H](C)C(=O)N[C@@H](Cc1ccccc1)C(=O)N[C@@H](C)C(=O)N[C@@H](CCCCN)C(=O)N[C@@H](CCCCN)C(=O)N[C@@H](CCCCN)C(=O)N[C@@H](CCCCN)C(N)=O [KKAFAAAAAFAAWAAFAKKKK]", "measured-target": "Pseudomonas aeruginosa ATCC 27853", "MIC": "> 32 µM"}

Exercise: Given the molecule NCCCC[C@H](NC(=O)[C@H](Cc1c[nH]c2ccccc12)NC(=O)[C@H](CCC(N)=O)NC(=O)[C@H](Cc1c[nH]c2ccccc12)NC(=O)[C@H](CCCCN)NC(=O)[C@@H](N)CCCCN)C(=O)O [KKWQWK] , write its reported MIC.
Key: 47 µM

Exercise: Given the molecule CC(C)C[C@H](NC(=O)[C@H](CC(C)C)NC(=O)[C@H](CCCCN)NC(=O)[C@H](CCCCN)NC(=O)[C@H](CC(C)C)NC(=O)[C@H](CS)NC(=O)[C@H](CCCCN)NC(=O)[C@H](CC(C)C)NC(=O)[C@@H](N)Cc1ccccc1)C(N)=O [FLKCLKKLL] , write its reported MIC.
Key: 14.5 µM

Exercise: Given the molecule CSCC[C@H](NC(=O)[C@H](CCCCN)NC(=O)[C@H](CCCCN)NC(=O)[C@H](CCCCN)NC(=O)[C@H](CCCN=C(N)N)NC(=O)[C@H](CCCN=C(N)N)NC(=O)[C@H](Cc1ccc(O)cc1)NC(=O)[C@@H](N)CCCN=C(N)N)C(=O)N[C@@H](CCCCN)C(=O)N[C@@H](CCCCN)C(=O)N[C@@H](C)C(N)=O [RYRRKKKMKKA] , write its reported MIC.
Key: > 100 µM

Exercise: Given the molecule CC[C@H](C)[C@H](NC(=O)[C@H](CCCCN)NC(=O)[C@H](CCCN=C(N)N)NC(=O)[C@H](Cc1ccccc1)NC(=O)[C@H](CC(C)C)NC(=O)[C@H](CCCN=C(N)N)NC(=O)[C@@H](N)CCCCN)C(=O)N[C@@H](CC(C)C)C(=O)N[C@@H](CCCCN)C(=O)N[C@@H](Cc1ccc(O)cc1)C(=O)N[C@@H](CC(C)C)C(N)=O [KRLFRKILKYL] , write its reported MIC.
Key: 11.5 µM

Exercise: Given the molecule C[C@H](NC(=O)[C@H](CCCCN)NC(=O)[C@H](Cc1c[nH]c2ccccc12)NC(=O)[C@H](Cc1c[nH]c2ccccc12)NC(=O)[C@H](Cc1c[nH]c2ccccc12)NC(=O)[C@H](Cc1c[nH]c2ccccc12)NC(=O)[C@H](CCCCN)NC(=O)[C@H](CCCCN)NC(=O)CN)C(=O)N[C@@H](CCCCN)C(N)=O [GKKWWWWKAK] , write its reported MIC.
Key: 89.1 µM

Exercise: Given the molecule CC[C@H](C)[C@H](NC(=O)CN)C(=O)N[C@@H](CC(C)C)C(=O)N[C@@H](CO)C(=O)N[C@@H](CCCCN)C(=O)N[C@@H](CC(C)C)C(=O)N[C@@H](CC(C)C)C(=O)N[C@@H](CCCCN)C(=O)N[C@@H](CCCCN)C(=O)N[C@@H](CC(C)C)C(=O)N[C@@H](CCCCN)C(=O)N[C@@H](CCCCN)C(=O)N[C@H](C(=O)N[C@H](C(=O)N[C@@H](C)C(=O)N[C@@H](CCCCN)C(N)=O)[C@@H](C)CC)[C@@H](C)CC [GILSKLLKKLKKIIAK] , write its reported MIC.
Key: 4.5 µM
